src = PubChem BioAssay (NCI)

- Tested on: MDA-MB-231 breast
- test-protocol: NCI tumour cell line growth inhibition, 48 h
Kindly supply the reported TGI values for the records listed here.

input: I have this compound here, Cc1ccc(C)c(NC(=O)/C(=N\N)C(c2cnc3ccc([N+](=O)[O-])cc3n2)[N+](=O)[O-])c1 (stereo not drawn) , and I need its recorded TGI.
output: > 100 µM

input: I have this compound here, Nc1nc(Cl)cc(NCC2(CO)CC(c3ccccc3)C2)n1 (stereo not drawn) , and I need its recorded TGI.
output: > 100 µM

input: I have this compound here, Cn1c2c(c3ccccc31)CC(=O)N1CCCC(C1)CC21OCCO1 (stereo not drawn) , and I need its recorded TGI.
output: > 100 µM
